assay: Components of the Cytosolic LPS Sensing Pathway: Gene Identification via Genome-wide siRNA Screen; conditions: RAW264.7 macrophages, IL-1a HTRF, actives lie on both sides, screened at 100 nM (by protocol), cells primed 5 h with Pam3CSK4 first;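 note: robust z of the log signal after scaling to non-targeting control siRNA wells of the plate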
In all, about 53,000 sequences went through this assay and about 3,700 (7%) were called active. Only a selection was taken, and actives are over-represented in it overall.
OUTCOME MEASURE: z-score

[[record]]
seq_text = "GGACAUUUCACAAGUCAAATT against Eloc"
outcome_measure = "z-score"
test_result = "1.81 (inactive)"

[[record]]
seq_text = "GGACUGUCCUCCAAUUUGCTT against Nat8f3"
outcome_measure = "z-score"
test_result = "-2.6 (active)"


Data request: State its z-score for this sequence: GGUAUCACUACUUUUUAGUTT against Eri3
Data returned: -0.742 (inactive)

Data request: State its z-score for this sequence: GCGAUGACCAAAAAUAUUGTT against Tmc1
Data returned: -0.0131 (inactive)

Data request: State its z-score for this sequence: GGCAGCAGCAAGUUUCUUCTT against Rbm38
Data returned: -2.31 (active)

Data request: State its z-score for this sequence: GCGGCUCCAUCAGAAAAUGTT against Htatip2
Data returned: 0.526 (inactive)

Data request: State its z-score for this sequence: GCCUUACUUCGGAGUGCUATT against Olfr606
Data returned: -4.78 (active)

Data request: State its z-score for this sequence: GGCUGACACAAGAUGGCUGTT against Ebpl
Data returned: 2.41 (active)
